- tested.on: Cytochrome P450 1A2 (Homo sapiens) (UniProt P05177)
- Sequence (P05177 whole entry, looked up): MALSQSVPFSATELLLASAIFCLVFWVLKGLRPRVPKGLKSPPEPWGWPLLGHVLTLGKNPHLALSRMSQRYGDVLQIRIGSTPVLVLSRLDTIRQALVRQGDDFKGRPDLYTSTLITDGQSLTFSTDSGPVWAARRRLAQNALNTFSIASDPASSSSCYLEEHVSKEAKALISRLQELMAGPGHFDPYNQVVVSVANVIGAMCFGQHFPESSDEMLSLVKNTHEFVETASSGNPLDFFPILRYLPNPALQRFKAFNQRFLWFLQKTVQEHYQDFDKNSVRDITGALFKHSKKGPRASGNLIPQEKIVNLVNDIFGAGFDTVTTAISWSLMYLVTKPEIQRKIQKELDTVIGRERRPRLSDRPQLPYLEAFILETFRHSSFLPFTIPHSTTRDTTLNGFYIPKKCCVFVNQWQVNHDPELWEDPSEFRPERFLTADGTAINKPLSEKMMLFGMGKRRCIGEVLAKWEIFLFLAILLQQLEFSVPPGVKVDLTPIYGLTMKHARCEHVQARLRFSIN
- protocol.notes: p450-cyp1a2 (AID 410); note: potency is the fitted concentration of half-maximal effect
- condition.info: recombinant CYP1A2, luciferin-ME demethylation, luminescence; series mostly up to 57 µM
Records with an inconclusive call do not appear. Activity calls are given as the source filed them. Calls come from the whole dose curve.
measurement.kind: Potency

A selection of reference data follows.
{"columns": ["compound", "Potency"],
 "data": [
  ["CC(C)c1cccc2nc3c(c([Si](C)(C)C)c12)Cn1c-3cccc1=O", "15.8 µM (active)"],
  ["CCCC[C@@H]1C[C@H]1C(NC(=O)c1cccs1)c1ccc(Cl)cc1 (some centres undefined)", "1 µM (active)"],
  ["COc1cc2ccc(=O)oc2c(O)c1OCC=C(C)C", "1.58 µM (active)"],
  ["C[C@@H](C(=O)Nc1ccc2ccccc2c1)[C@@H]1C[C@@]1(C)[C@@H](N)c1ccccc1", "15.8 µM (active)"]
]}

Fill in reported Potency for this entry: O=c1c2ccccc2oc2cc(O)c([C@@H]3COC[C@@H](CO)[C@@H](O)[C@@H](O)[C@H]3O)c(O)c12
inactive

Fill in reported Potency for this entry: O[C@@H]1CC[C@H]2Cc3ccccc3N=C21
15.8 µM (active)

Fill in reported Potency for this entry: COC(=O)[C@@]1(Cc2ccc(OC)cc2)[C@H]2c3cc(C(=O)N4CCCC4)n(Cc4ccc(C(F)(F)F)nc4)c3C[C@H]2CN1C(=O)c1ccccc1
inactive

Fill in reported Potency for this entry: O=c1cc(-c2ccc(O)c(O)c2)oc2cccc(O)c12
0.158 µM (active)

Fill in reported Potency for this entry: C[C@@H](C(=O)Nc1ccc2ccccc2c1)[C@@H]1C[C@@]1(C)[C@@H](NS(=O)(=O)c1ccc(-c2ccccc2)cc1)c1ccccc1
12.6 µM (active)
